Assignment: determine reported kon for the given binders.
target: T1, c-Met-Fc chimera protein (UniProt P08581 25-932, limits assumed); experiment: SPR (Biacore), c-Met-Fc captured by anti-IgG on CM5, single-cycle kinetics
T1 construct: Captured on the SPR chip by an anti-IgG antibody; not shown: Fc part
T1 sequence (P08581 25-932 limits assumed, change not shown): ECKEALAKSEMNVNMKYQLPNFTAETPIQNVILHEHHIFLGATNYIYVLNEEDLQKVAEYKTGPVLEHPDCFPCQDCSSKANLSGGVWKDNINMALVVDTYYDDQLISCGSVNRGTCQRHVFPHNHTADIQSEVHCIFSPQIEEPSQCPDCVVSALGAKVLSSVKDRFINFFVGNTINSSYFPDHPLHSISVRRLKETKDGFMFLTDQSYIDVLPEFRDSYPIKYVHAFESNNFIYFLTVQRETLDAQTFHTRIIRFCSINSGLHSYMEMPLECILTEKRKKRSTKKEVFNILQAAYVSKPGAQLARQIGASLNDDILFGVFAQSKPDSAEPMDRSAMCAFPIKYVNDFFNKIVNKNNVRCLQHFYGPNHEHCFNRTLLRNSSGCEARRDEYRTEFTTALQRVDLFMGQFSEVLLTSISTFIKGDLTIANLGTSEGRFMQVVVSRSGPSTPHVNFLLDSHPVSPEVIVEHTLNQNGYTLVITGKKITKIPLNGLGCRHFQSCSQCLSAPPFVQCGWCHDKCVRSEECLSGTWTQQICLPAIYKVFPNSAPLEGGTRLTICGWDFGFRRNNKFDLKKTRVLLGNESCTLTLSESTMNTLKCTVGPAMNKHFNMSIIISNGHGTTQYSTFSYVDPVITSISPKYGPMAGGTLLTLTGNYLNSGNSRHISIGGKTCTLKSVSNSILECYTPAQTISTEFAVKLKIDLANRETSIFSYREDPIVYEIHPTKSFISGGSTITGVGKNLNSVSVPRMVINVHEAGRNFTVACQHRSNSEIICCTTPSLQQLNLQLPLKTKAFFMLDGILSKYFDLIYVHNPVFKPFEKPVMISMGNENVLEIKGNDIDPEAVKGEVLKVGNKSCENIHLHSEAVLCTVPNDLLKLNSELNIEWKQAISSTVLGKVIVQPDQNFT
Bridges are numbered along the chain shown (N, C = ends). Roman numbers before positions name the chains, in order. Where no end group is shown, it is not given here. [ ]: non-standard residue; d: D form. NMeR = CN[C@@H](CCCNC(=N)N)C(=O)O; NMeC = CN[C@@H](CS)C(=O)O
Your answer should be a number followed by the unit of measure.

Reference set, count: 2
# query: kon of entry {CH2CO}-YRQFN[NMeR]RTHEVWNLD[NMeC]GC(Bis‑MAL‑PEG11) (thioether N-16; also: dimer via Bis-MAL-PEG11, also called D4-3NMe Bis-MAL-PEG11; dimerized N-methylated D4-3 peptide) [D4-3NMe dimeric peptide, linker Bis-MAL-PEG11] 490000 M⁻¹ s⁻¹

# query: kon of entry {CH2CO}-YISWNEFNSPNWRFITCG (thioether N-17, also called L5-2 peptide; L5-2 Monomer) [L5-2] 2.3e+06 M⁻¹ s⁻¹

More entries:
# query: kon of entry D5-4 dimeric peptide, linker BMH (thioether I:N-I:15, II:N-II:15 via Ac; not fully specified (N-terminus, bridges); also: dimer: two copies joined by BMH through an added C-terminal Cys (handle not in letters), Two macrocyclic peptides joined through their C-terminal Cys by BMH; also called D5-4 BMH; not shown: C-terminal handle of each copy (spacer residue plus Cys)) peptide 1: [dY]WYYAWDQTYKAFPCG peptide 2: [dY]WYYAWDQTYKAFPCG 46000 M⁻¹ s⁻¹
